FYI, the data here is from ChEMBL document CHEMBL1649119.

Experiment notes: Mean residence time in cancer patient with neutropenic fever at 6 mg/kg, iv administered as 30 mins infusion every 24 hrs
Assay type: ADME, organism-based
Set-up: dose 6 mg/kg, route intravenous
Conditions: human, in vivo
Quantity measured: MRT (h)
Give bare numbers, in h.

State the recorded MRT for this entry: CCCCCCCCCC(=O)N[C@@H](Cc1c[nH]c2ccccc12)C(=O)N[C@H](CC(N)=O)C(=O)N[C@@H](CC(=O)O)C(=O)N[C@@H]1C(=O)NCC(=O)N[C@@H](CCCN)C(=O)N[C@@H](CC(=O)O)C(=O)N[C@H](C)C(=O)N[C@@H](CC(=O)O)C(=O)NCC(=O)N[C@H](CO)C(=O)N[C@@H]([C@H](C)CC(=O)O)C(=O)N[C@@H](CC(=O)c2ccccc2N)C(=O)O[C@@H]1C
11.9
